conditions: 293.15 K; 101 kPa; Liquid; Sing-around technique in a fixed-path interferometer
speed of sound values, listed per item
// units = m/s; emit number, no label

Observe how each entry below is paired with its result.
• CCCC(C)=O = 1233
• CCC(C)=O = 1213
• CC1CCCC1 = 1197

Okay, now this compound:
Incoming: Item under review: `CC(C)=O` . Reported speed of sound?
Outgoing: 1185

----------
conditions: 298.15 K; 101 kPa; Liquid; Capillary tube (Ostwald / Ubbelohde) method
viscosity values, listed per item
// units = mPa·s; emit number, no label

Observe how each entry below is paired with its result.
* CCCC(C)=O | 0.469
* CC(C)=O | 0.306
* CC1CCCC1 | 0.476

Okay, now this compound:
Incoming: Item under review: `CCC(C)=O` . Reported viscosity?
Outgoing: 0.378

----------
conditions: 303.15 K; 101 kPa; Liquid; Vibrating tube method
Measured attribute: mass density (kg/m3)
// units = kg/m3; emit number, no label

- CCC(C)=O [butanone]: 794.48

Incoming: Item under review: CC1CCCC1 [methylcyclopentane] . Reported mass density?
Outgoing: 737.21

Incoming: Item under review: CCCC(C)=O [pentan-2-one] . Reported mass density?
Outgoing: 796.58

Incoming: Item under review: CC(C)=O [acetone] . Reported mass density?
Outgoing: 779.66

----------
conditions: 303.15 K; 101 kPa; Liquid; Sing-around technique in a fixed-path interferometer
± gives the expanded uncertainty stated by the source.
Measured attribute: speed of sound

Observe how each entry below is paired with its result.
* CC1CCCC1 [methylcyclopentane] | 1150 ± 5 m/s
* CC(C)=O [acetone] | 1140 ± 2 m/s

Incoming: Item under review: CCC(C)=O [butanone] . Reported speed of sound?
Outgoing: 1171 ± 2 m/s

Incoming: Item under review: CCCC(C)=O [pentan-2-one] . Reported speed of sound?
Outgoing: 1192 ± 2 m/s

----------
details: 293.15 K; 101 kPa; Liquid; Capillary tube (Ostwald / Ubbelohde) method
viscosity values, listed per item
// units = mPa·s; emit number, no label

Observe how each entry below is paired with its result.
• CC(C)=O = 0.32
• CCC(C)=O = 0.398
• CCCC(C)=O = 0.496

Okay, now this compound:
Incoming: Item under review: `CC1CCCC1` . Reported viscosity?
Outgoing: 0.504

----------
conditions: 293.15 K; 101 kPa; Liquid; Vibrating tube method
Measured attribute: mass density (kg/m3)
// units = kg/m3; emit number, no label

Observe how each entry below is paired with its result.
* CC1CCCC1 | 746.64
* CC(C)=O | 791.11
* CCCC(C)=O | 806.26

Okay, now this molecule:
Incoming: Item under review: `CCC(C)=O` . Reported mass density?
Outgoing: 804.95

----------
settings: 298.15 K; 101 kPa; Liquid; Sing-around technique in a fixed-path interferometer
Measured attribute: speed of sound (m/s)
// units = m/s; emit number, no label

Observe how each entry below is paired with its result.
• CCCC(C)=O = 1213
• CC1CCCC1 = 1174
• CCC(C)=O = 1192

Okay, now this molecule:
Incoming: Item under review: `CC(C)=O` . Reported speed of sound?
Outgoing: 1162

These data points were gathered from the NIST ThermoML archive (doi:10.1016/j.jct.2005.08.002).
